Just for reference, paper PMC12136788 is where these values come from.

Reported binding signal values for a set of binders
Biological target: T1, UNK ZnF1-3 (human, UniProt Q9C0B0 31-174)
T1 sequence: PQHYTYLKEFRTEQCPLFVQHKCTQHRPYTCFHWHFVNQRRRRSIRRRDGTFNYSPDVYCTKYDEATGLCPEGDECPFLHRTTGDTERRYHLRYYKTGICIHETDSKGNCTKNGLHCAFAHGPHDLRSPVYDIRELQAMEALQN
Assay: nsRBNS (natural sequence RNA bind-n-seq); RBNS binding buffer (assumed for nsRBNS): 25 mM Tris pH 7.5, 150 mM KCl, 3 mM MgCl2, 0.01% Triton X-100, 500 ug/ml BSA, 20 U/ml SUPERase-In, 4 C; UNK is unkempt and MSI1 is Musashi-1; names of the RNAs are library labels; protein concentration not given here; high values mean tight binding
Over roughly 24,000 sequences, “enrichment r” has its median near 0.99; the highest 2% begin near 3.7. The list comes from a sample in which the highest values are over-represented; it also holds close analogues and randomly drawn sequences.
reported.metric: binding signal (enrichment R)

binder="chrX:140365796:140365797:-_ENSMUSG00000031285_ENSMUST00000033642|mus_mus|mus_mus_mus_hu_False|28_108 (ssRNA) RNA: GGGAGUUCUACAGUCCGACGAUCCUUCUCAUUACUUAGUGCCUGCAAGGUUCUGGUUCGGUAGAAGCUACAGUGGGCGCUGUGAGUGGGGCUAGGCAACCCAUUCAUCCGUGACCCUCGCAUGUUCCUGGAUGUCUUAUCUCUCAACAGAGGAUUGAGCAUCA" recorded_measurement=0.752
binder="chr2:219525992:219525993:+_ENSG00000074582_ENST00000359273|hu_mus|FALSE|FALSE (ssRNA) RNA: GGGAGUUCUACAGUCCGACGAUCGAUCCAUUUUCCCUGAUACCAAAUGAAGUGGUUUCCAGGGCUGGGGAUAAAUUCAAACUUGGUGGAGAUCCGGCCACUUUCAUGCUGAAGGUAUGAGGUUUCAACACUGAGGUGCUGAGUCAACAGAGGAUUGAGCAUCA" recorded_measurement=0.804
